# procedureSummary: MM1S myeloma cell viability, profiling panel, resazurin fluorescence, basal, 24 h, PK04 Diversity Set (AID 1174);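 note: MM1S multiple myeloma cell line; test concentration not given here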
# conditionNotes: higher = more signal, called active from +8 up or from −8 down
Outcome label depends on z-score relative to -2: at/above gives Y, below gives N.

In [3]: df
Out[3]:
                                   compound  discretelabel
0  Cc1cc(C)cc(N2C(=O)CS(=O)(=O)C2c2cccc([N+](=O)[O-])c2)c1 (stereo not given)              Y
1  Cc1ccc(S[C@]2(C(=O)NCc3ccccc3)CC(=O)N(Cc3ccccc3)[C@@H]2c2ccc(CO)cc2)cc1              Y
2  CC(C)Cc1ccc(CN2CC[C@@H](NS(=O)(=O)c3ccccc3)C2)cc1              Y
3  COC(=O)[C@@]1(Cc2ccc(OC)cc2)[C@H]2c3cc(C(=O)N4CCCC4)n(Cc4cc(F)cc5c4OCOC5)c3C[C@H]2CN1C(=O)c1ccccc1              N
4  CC(C)OC(=O)CC(=O)CC(O)c1ccc(C#N)cc1 (stereo not given)              Y
5  CC(c1ccccc1)C(O)C1C=CC2C(=O)NC(=O)C2N1Nc1ccccn1 (stereo not given)              Y
6  C=CCNC(=O)[C@@H]1[C@H]2C(=O)O[C@H](c3ccccc3)[C@H](c3ccccc3)N2[C@H](c2ccccc2OCCO)[C@@]12C(=O)Nc1ccc(C#CC3=CCCCC3)cc12              N
7  O=C(O)[C@@]1(Cc2ccccc2)N=C(c2ccc(OCCCO)cc2)O[C@H]1c1ccccc1              Y
8  Cc1ccc(S[C@]2(C(=O)NCCN3CCOCC3)CC(=O)N(Cc3cc(C(F)(F)F)cc(C(F)(F)F)c3)[C@@H]2c2ccc(CO)cc2I)cc1              N
9  COC(=O)[C@@]1(Cc2ccc(OC)cc2)[C@H]2c3cc(C(=O)N4CCCC4)n(Cc4ccccn4)c3C[C@H]2CN1C(=O)c1ccccc1              Y

meta.source: PubChem BioAssay
